tested on: A549; test: Antiproliferative activity against human A549 cells assessed as inhibition of cell growth incubated for 72 hrs by CCK-8 assay; format: functional, cell-based; details: A549, 72 h
pIC50 values for the compounds below.
Reminder that pIC50 means the negative base-10 logarithm of the concentration expressed in mol/L.

Sample answers from the record:
line-notation	pIC50
CC[C@@](C)(NC(=O)[C@H](C)NC(=O)[C@H](CO)NC(=O)C(C)(C)NC(C)=O)C(=O)N[C@](C)(CC)C(=O)N[C@@H](CCC(N)=O)C(=O)N[C@](C)(CC)C(=O)N[C@H](C(=O)NC(C)(C)C(=O)NCC(=O)N[C@@H](CC(C)C)C(=O)NC(C)(C)C(=O)N1CCC[C@H]1C(=O)N[C@@H](CC(C)C)C(=O)NC(C)(C)C(=O)NC(C)(C)C(=O)N[C@@H](CCC(N)=O)C(=O)N[C@H](CO)Cc1ccccc1)C(C)C	5.59
CC[C@@H](C)[C@H](NC(=O)[C@@](C)(CC)NC(=O)[C@H](CCC(N)=O)NC(=O)[C@@](C)(CC)NC(=O)[C@@](C)(CC)NC(=O)[C@H](C)NC(=O)[C@H](CO)NC(=O)C(C)(C)NC(C)=O)C(=O)NC(C)(C)C(=O)NCC(=O)N[C@@H](CC(C)C)C(=O)NC(C)(C)C(=O)N1CCC[C@H]1C(=O)N[C@@H](CC(C)C)C(=O)NC(C)(C)C(=O)NC(C)(C)C(=O)N[C@@H](CCC(N)=O)C(=O)N[C@H](CO)Cc1ccccc1	5.55
CC[C@@](C)(NC(=O)[C@H](CCC(N)=O)NC(=O)[C@@](C)(CC)NC(=O)C(C)(C)NC(=O)[C@H](C)NC(=O)[C@H](C)NC(=O)C(C)(C)NC(C)=O)C(=O)N[C@H](C(=O)NC(C)(C)C(=O)NCC(=O)N[C@@H](CC(C)C)C(=O)NC(C)(C)C(=O)N1CCC[C@H]1C(=O)N[C@@H](CC(C)C)C(=O)NC(C)(C)C(=O)NC(C)(C)C(=O)N[C@@H](CCC(N)=O)C(=O)N[C@H](CO)Cc1ccccc1)C(C)C	5.55
CC[C@@](C)(NC(=O)C(C)(C)NC(=O)[C@H](C)NC(=O)[C@H](C)NC(=O)C(C)(C)NC(C)=O)C(=O)N[C@@H](CCC(N)=O)C(=O)NC(C)(C)C(=O)N[C@H](C(=O)NC(C)(C)C(=O)NCC(=O)N[C@@H](CC(C)C)C(=O)NC(C)(C)C(=O)N1CCC[C@H]1C(=O)N[C@@H](CC(C)C)C(=O)NC(C)(C)C(=O)NC(C)(C)C(=O)N[C@@H](CCC(N)=O)C(=O)N[C@H](CO)Cc1c[nH]c2ccccc12)C(C)C	5.60
CC[C@@](C)(NC(=O)[C@H](C)NC(=O)[C@H](C)NC(=O)C(C)(C)NC(C)=O)C(=O)N[C@](C)(CC)C(=O)N[C@@H](CCC(N)=O)C(=O)NC(C)(C)C(=O)N[C@H](C(=O)NC(C)(C)C(=O)NCC(=O)N[C@@H](CC(C)C)C(=O)NC(C)(C)C(=O)N1CCC[C@H]1C(=O)N[C@@H](CC(C)C)C(=O)NC(C)(C)C(=O)NC(C)(C)C(=O)N[C@@H](CCC(N)=O)C(=O)N[C@H](CO)Cc1ccccc1)C(C)C	5.89

Then this compound:
# pIC50 of "CC[C@@](C)(NC(=O)[C@H](C)NC(=O)[C@H](C)NC(=O)C(C)(C)NC(C)=O)C(=O)N[C@](C)(CC)C(=O)N[C@@H](CCC(N)=O)C(=O)N[C@](C)(CC)C(=O)N[C@H](C(=O)NC(C)(C)C(=O)NCC(=O)N[C@@H](CC(C)C)C(=O)NC(C)(C)C(=O)N1CCC[C@H]1C(=O)N[C@@H](CC(C)C)C(=O)NC(C)(C)C(=O)NC(C)(C)C(=O)N[C@@H](CCC(N)=O)C(=O)N[C@H](CO)Cc1ccccc1)C(C)C" = 5.57

----------
system: Pseudomonas aeruginosa; test: Antibacterial activity against Pseudomonas aeruginosa ATCC 47085 assessed as inhibition of bacterial growth incubated for 24 hrs by microtiter plate reader analysis; assay type: functional
readout-label: MIC

Here are 2 molecules together with their reported answers.
line-notation	target-or-test-system	MIC
CC[C@@](C)(NC(=O)[C@H](CCC(N)=O)NC(=O)[C@@](C)(CC)NC(=O)C(C)(C)NC(=O)[C@H](C)NC(=O)[C@H](C)NC(=O)C(C)(C)NC(C)=O)C(=O)N[C@H](C(=O)NC(C)(C)C(=O)NCC(=O)N[C@@H](CC(C)C)C(=O)NC(C)(C)C(=O)N1CCC[C@H]1C(=O)N[C@@H](CC(C)C)C(=O)NC(C)(C)C(=O)NC(C)(C)C(=O)N[C@@H](CCC(N)=O)C(=O)N[C@H](CO)Cc1ccccc1)C(C)C	Pseudomonas aeruginosa	> 180 µg/mL
CC[C@@](C)(NC(=O)[C@H](C)NC(=O)[C@H](CO)NC(=O)C(C)(C)NC(C)=O)C(=O)N[C@](C)(CC)C(=O)N[C@@H](CCC(N)=O)C(=O)N[C@](C)(CC)C(=O)N[C@H](C(=O)NC(C)(C)C(=O)NCC(=O)N[C@@H](CC(C)C)C(=O)NC(C)(C)C(=O)N1CCC[C@H]1C(=O)N[C@@H](CC(C)C)C(=O)NC(C)(C)C(=O)NC(C)(C)C(=O)N[C@@H](CCC(N)=O)C(=O)N[C@H](CO)Cc1ccccc1)C(C)C	Pseudomonas aeruginosa	> 180 µg/mL

Below: the item to evaluate.
Log: Pseudomonas aeruginosa, molecule "CC[C@@](C)(NC(=O)[C@H](C)NC(=O)[C@H](C)NC(=O)C(C)(C)NC(C)=O)C(=O)N[C@](C)(CC)C(=O)N[C@@H](CCC(N)=O)C(=O)N[C@](C)(CC)C(=O)N[C@H](C(=O)NC(C)(C)C(=O)NCC(=O)N[C@@H](CC(C)C)C(=O)NC(C)(C)C(=O)N1CCC[C@H]1C(=O)N[C@@H](CC(C)C)C(=O)NC(C)(C)C(=O)NC(C)(C)C(=O)N[C@@H](CCC(N)=O)C(=O)N[C@H](CO)Cc1ccccc1)C(C)C" , MIC = > 180 µg/mL

----------
system: A549; test: Antiproliferative activity against human A549 cells assessed as inhibition of cell growth incubated for 72 hrs by CCK-8 assay; format: functional, cell-based; settings: A549, 72 h
readout-label: IC50 (µM)
Output spec: scalar in µM, unitless text.

"CC[C@@](C)(NC(=O)C(C)(C)NC(=O)[C@H](C)NC(=O)[C@H](C)NC(=O)C(C)(C)NC(C)=O)C(=O)N[C@@H](CCC(N)=O)C(=O)NC(C)(C)C(=O)N[C@H](C(=O)NC(C)(C)C(=O)NCC(=O)N[C@@H](CC(C)C)C(=O)NC(C)(C)C(=O)N1CCC[C@H]1C(=O)N[C@@H](CC(C)C)C(=O)NC(C)(C)C(=O)NC(C)(C)C(=O)N[C@@H](CCC(N)=O)C(=O)N[C@H](CO)Cc1ccccc1)C(C)C" yielded IC50 of 2.7
